test-system: Beta-2 adrenergic receptor (Homo sapiens)
Sequence (P07550 whole entry): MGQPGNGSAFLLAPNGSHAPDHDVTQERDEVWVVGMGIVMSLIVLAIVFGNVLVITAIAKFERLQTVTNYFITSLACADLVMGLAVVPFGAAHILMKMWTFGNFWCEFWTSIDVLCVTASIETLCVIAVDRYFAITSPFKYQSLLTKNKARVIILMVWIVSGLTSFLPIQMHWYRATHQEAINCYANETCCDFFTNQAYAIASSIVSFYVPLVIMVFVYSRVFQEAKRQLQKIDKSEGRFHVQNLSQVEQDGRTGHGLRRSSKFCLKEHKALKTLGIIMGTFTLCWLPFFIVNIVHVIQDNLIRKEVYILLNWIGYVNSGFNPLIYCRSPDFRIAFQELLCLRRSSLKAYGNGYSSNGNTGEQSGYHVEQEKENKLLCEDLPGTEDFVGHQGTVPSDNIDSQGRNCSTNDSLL
experiment: ADRB2 activation measured by internalization – cell-based, FAP fluorogen, flow cytometry, cherry pick 1, dose response (AID 588763)
Assay type: functional
Activity calls are given as the source filed them. No rule for the calls is given here.
measured-quantity: EC50

### Prompt I have this molecule here, `O=C(Nc1ccccc1)c1ccccc1CCc1ccccc1` , and I need its recorded EC50.
### Response 1.7 µM (active)

### Prompt # input molecule: `c1nc(NCCN2CCOCC2)c2sc3nc(N4CCOCC4)c4c(c3c2n1)CCC4` ; wanted: its EC50
### Response 3.34 µM (active)

### Prompt Reported EC50 for `CSc1ccc(CNC(=O)c2ccc(NC(=O)C3=CSCCO3)cc2)cc1` : what is it?
### Response 0.0482 µM (active)

### Prompt Param item = `CN(CC(=O)N1CCN(c2ccccn2)CC1)S(=O)(=O)c1ccc(Cl)cc1` ; retrieve measured EC50.
### Response 0.0396 µM (active)

### Prompt So what does the record say about EC50 for `C=CCn1c(CCNC(=O)c2cccs2)nnc1SCC(=O)c1ccc(Cl)cc1` ?
### Response 0.167 µM (active)
